Test system: NCI-H1734
experiment.notes: relative viability (nuclei count vs DMSO), 5 days (fraction); higher = more cells survive
details: first compound 2.53 µM
relative viability values, listed per item

| compound | relative viability |
| --- | --- |
| C=C1C(=O)O[C@@H](CCCCCCCC)[C@@H]1C(=O)O [C-75] + N=C(N)NC(=N)NCCc1ccccc1 [Phenformin] (partner 250 µM) | 0.286 |
| Oc1nc(-c2ccc(C(F)(F)F)cc2)nc2c1CSCC2 [XAV939] + CC(C)C[C@H](NC(=O)[C@H](Cc1ccccc1)NC(=O)c1cnccn1)B(O)O [Bortezomib] (partner 0.002 µM) | 0.86 |
| C=C1C(=O)O[C@@H](CCCCCCCC)[C@@H]1C(=O)O [C-75] + NC(=O)Nc1cc(-c2cccc(F)c2)sc1C(=O)N[C@H]1CCCNC1 [AZD7762] (partner 0.2 µM) | 0.278 |
| Oc1nc(-c2ccc(C(F)(F)F)cc2)nc2c1CSCC2 [XAV939] + O=C(c1cc(Cc2n[nH]c(=O)c3ccccc23)ccc1F)N1CCN(C(=O)C2CC2)CC1 [Olaparib] (partner 8 µM) | 0.602 |
| C=C1C(=O)O[C@@H](CCCCCCCC)[C@@H]1C(=O)O [C-75] + C[C@@H](Oc1cc(-c2cnn(C3CCNCC3)c2)cnc1N)c1c(Cl)ccc(F)c1Cl [Crizotinib] (partner 1 µM) | 0.557 |
